TARGET UNDER TEST: Collagenase-III
ASSAY NOTES: MMP enzymatic assay, hydrolysis of MCA-Pro-Leu-Gly-Leu-DPA-Ala-Arg-NH2, Collagenase-III
TEST PARAMETERS: 37° C., pH 7.5, 2.5% DMSO
pIC50: −log10 of the molar value.
ENDPOINT NAME: pIC50

{"CPD SMILES": "CC(C)[C@H](C(=O)NO)N(Cc1ccccc1)S(=O)(=O)N1CCCCC1", "TARGET UNDER TEST": "Collagenase-III", "pIC50": 6.18}

P = CN(C)C(=O)N1CCN(S(=O)(=O)N2CCC(c3c[nH]c4c(F)c(F)c(F)c(F)c34)CC2)[C@@H](C(=O)NO)C1
Q = O=C(NO)C1(NS(=O)(=O)N2CCN(c3ccc(Cl)cc3)CC2)CCCCC1
Asked: Select one. Lower pIC50: P or Q I would appreciate it if you answered with the label of your choice.
Given back: P
(P: 6.30, Q: 8.18)

====

TARGET UNDER TEST: Collagenase-III
ASSAY NOTES: MMP enzymatic assay, hydrolysis of MCA-Pro-Leu-Gly-Leu-DPA-Ala-Arg-NH2, Collagenase-III
TEST PARAMETERS: 37° C., pH 7.5, 2.5% DMSO
pIC50: −log10 of the molar value.
ENDPOINT NAME: pIC50

I = O=C(NO)C1CCCCN1S(=O)(=O)N1CCC(c2c[nH]c3ccc(F)cc23)CC1 (racemic) [compound 254]
II = C[C@H](C(=O)O)N(Cc1ccccc1)S(=O)(=O)NCc1ccccc1 [compound 431]
III = C[C@@H](NS(=O)(=O)N1CC=C(c2ccc(Cl)cc2)CC1)C(=O)NO [compound 401]
IV = CC(C)[C@H](C(=O)NO)N(CCCc1cccnc1)S(=O)(=O)N1CCC(Oc2ccc(Br)cc2)CC1 [compound 105]
Asked: Arrange the above in rising order of pIC50. Give me the labels in the order the question wants.
Given back: II, I, IV, III
(II: 5.19, I: 6.74, IV: 9.23, III: 9.72)

====

TARGET UNDER TEST: Collagenase-III
ASSAY NOTES: MMP enzymatic assay, hydrolysis of MCA-Pro-Leu-Gly-Leu-DPA-Ala-Arg-NH2, Collagenase-III
TEST PARAMETERS: 37° C., pH 7.5, 2.5% DMSO
Method: The propeptide and catalytic domain portion of human collagenase-3 was expressed in E. Coli as an N-terminal fusion protein with ubiquitin. […] The matrix metalloprotease inhibitory activity of compounds of this invention in vitro was determined based on the hydrolysis of MCA-Pro-Leu-Gly-Leu-DPA-Ala-Arg-NH2 (Bachem, Inc.) at 37° C. as described in Knight, C. […]
pIC50: −log10 of the molar value.
ENDPOINT NAME: pIC50

Would you please look over these solved cases?
{"MOLECULE": "O=C(NO)C1(NS(=O)(=O)N2CCN(c3ccc(Cl)cn3)CC2)CCCCC1", "pIC50": 8.68}
{"MOLECULE": "CC(C)[C@@H](NS(=O)(=O)N1CCN(c2ccc(OCc3ccccc3)cc2)CC1)C(=O)NO", "pIC50": 9.14}
{"MOLECULE": "O=C(NO)C1CCCCN1S(=O)(=O)N1CCC(c2noc3cc(F)ccc23)CC1 (racemic)", "pIC50": 10.20}

A = CC(C)[C@@H](NS(=O)(=O)N1CCN(c2ccc(Cl)cc2)CC1)C(=O)NO
B = CC(C)[C@@H](NS(=O)(=O)N1CCC(Oc2ccc(Cl)cc2)CC1)C(=O)NO
Asked: Please let me know which one, A or B , has a lower measured pIC50 value. Pick one and reply with its label.
Given back: A

a = CC(=O)N1CCN(S(=O)(=O)N2CCC(C(=O)c3ccc(Cl)cc3)CC2)C(C(=O)NO)C1 (racemic)
b = CN(C)S(=O)(=O)N1CCN(S(=O)(=O)N2CCC(C(=O)c3ccc(Cl)cc3)CC2)[C@@H](C(=O)NO)C1
c = N#Cc1ccc2[nH]cc(C3CCN(S(=O)(=O)N4CCCC[C@@H]4C(=O)NO)CC3)c2c1
d = O=C(NO)C1CCCCN1S(=O)(=O)N1CCC(c2c[nH]c3cc(Cl)ccc23)CC1 (racemic)
e = C[C@@H](NS(=O)(=O)N1CCN(C(=O)Nc2ccc(Cl)cc2)CC1)C(=O)NO
Asked: Place the items in sequence of falling pIC50. Labels, requested order.
Given back: b, a, e, d, c

====

TARGET UNDER TEST: Collagenase-III
ASSAY NOTES: MMP enzymatic assay, hydrolysis of MCA-Pro-Leu-Gly-Leu-DPA-Ala-Arg-NH2, Collagenase-III
TEST PARAMETERS: 37° C., pH 7.5, 2.5% DMSO
ENDPOINT NAME: IC50 (nM)

I = CC(C)[C@@H](NS(=O)(=O)N1CCC(c2nc(-c3ccccc3)c[nH]2)CC1)C(=O)NO
II = CC(C)[C@@H](NS(=O)(=O)N1CCN(c2ccc(Cl)cn2)CC1)C(=O)NO
III = CN(Cc1ccccc1)S(=O)(=O)N(CC(=O)O)Cc1ccccc1
Asked: Order these by IC50, descending, and give the full ranking. Arrange the labels as the request states and list them.
Given back: III, I, II

====

TARGET UNDER TEST: Collagenase-III
ASSAY NOTES: MMP enzymatic assay, hydrolysis of MCA-Pro-Leu-Gly-Leu-DPA-Ala-Arg-NH2, Collagenase-III
TEST PARAMETERS: 37° C., pH 7.5, 2.5% DMSO
pIC50: −log10 of the molar value.
ENDPOINT NAME: pIC50

{"COMPOUND": "O=C(NO)[C@H]1CCCCN1S(=O)(=O)N1CCC(c2c[nH]c3c(F)c(F)c(F)c(F)c23)CC1 [compound 299]", "pIC50": 6.39}

A = O=CN1CCN(S(=O)(=O)N2CCC(C(=O)c3ccc(Cl)cc3)CC2)C(C(=O)NO)C1 (racemic) [compound 262]
B = O=C(c1ccc(Cl)cc1)C1CCN(S(=O)(=O)N2CCCC[C@@H]2C(=O)NO)CC1 [compound 242]
Asked: Which of the two gives a bigger number for pIC50: A or B ? Provide the label of your selected option as the answer.
Given back: B

Origin of the recorded values: patent US6130220A
